Some molecules, each annotated with its measured Selectivity Index (SI).
Biological target: COX-2 (Homo sapiens, UniProt P35354)
Sequence (P35354 18-604): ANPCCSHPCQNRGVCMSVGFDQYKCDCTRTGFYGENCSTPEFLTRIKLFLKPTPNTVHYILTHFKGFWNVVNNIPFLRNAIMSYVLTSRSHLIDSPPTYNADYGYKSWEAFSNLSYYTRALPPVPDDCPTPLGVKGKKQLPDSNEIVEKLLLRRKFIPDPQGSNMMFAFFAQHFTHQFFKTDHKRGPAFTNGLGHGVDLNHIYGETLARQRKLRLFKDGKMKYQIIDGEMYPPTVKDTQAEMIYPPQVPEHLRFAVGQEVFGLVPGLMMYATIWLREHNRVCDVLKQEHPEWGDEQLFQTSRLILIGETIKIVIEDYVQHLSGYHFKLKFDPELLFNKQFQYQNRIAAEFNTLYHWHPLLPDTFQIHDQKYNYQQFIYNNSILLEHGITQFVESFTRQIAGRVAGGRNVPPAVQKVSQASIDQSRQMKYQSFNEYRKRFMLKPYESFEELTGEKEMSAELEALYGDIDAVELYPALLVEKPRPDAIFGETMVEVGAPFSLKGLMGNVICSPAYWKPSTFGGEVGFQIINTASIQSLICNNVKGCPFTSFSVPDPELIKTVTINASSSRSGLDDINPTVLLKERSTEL
Assay: COX-2 inhibition, Cayman's COX Colorimetric Inhibitor Screening Assay Kit
Settings: COX-2 IC50/COX-1 IC50

{"columns": ["input_smiles", "Selectivity Index (SI)"],
 "data": [
  ["Cc1c2c(OCC(=O)N/N=C/c3ccccc3O)nn(C)c(=O)c2c(C)n1-c1ccccc1", 0.28],
  ["Cc1ccc(/C=N/NC(=O)COc2nn(C)c(=O)c3c(C)n(-c4ccccc4)c(C)c23)cc1", 0.27],
  ["CCCCn1c(C)c2c(OCC(=O)N/N=C/c3ccccc3)nn(C)c(=O)c2c1C", 0.21],
  ["Cc1c2c(OCC(=O)N/N=C/c3ccccc3O)nn(C)c(=O)c2c(C)n1-c1cccc(Cl)c1", 0.13],
  ["Cc1c2c(OCC(=O)N/N=C/c3ccccc3)nn(C)c(=O)c2c(C)n1-c1cccc(Cl)c1", 0.23],
  ["Cc1c2c(OCC(=O)N/N=C/c3ccccc3)nn(C)c(=O)c2c(C)n1-c1ccccc1", 0.25],
  ["CCCCn1c(C)c2c(OCC(=O)N/N=C/c3ccc(C)cc3)nn(C)c(=O)c2c1C", 0.17],
  ["CCCCn1c(C)c2c(OCC(=O)N/N=C/c3ccccc3O)nn(C)c(=O)c2c1C", 0.18]
]}

====

Below, each of the compounds is paired with its reported IC50 value.
Target: UniProt:P08170
Sequence (P08170 1-839): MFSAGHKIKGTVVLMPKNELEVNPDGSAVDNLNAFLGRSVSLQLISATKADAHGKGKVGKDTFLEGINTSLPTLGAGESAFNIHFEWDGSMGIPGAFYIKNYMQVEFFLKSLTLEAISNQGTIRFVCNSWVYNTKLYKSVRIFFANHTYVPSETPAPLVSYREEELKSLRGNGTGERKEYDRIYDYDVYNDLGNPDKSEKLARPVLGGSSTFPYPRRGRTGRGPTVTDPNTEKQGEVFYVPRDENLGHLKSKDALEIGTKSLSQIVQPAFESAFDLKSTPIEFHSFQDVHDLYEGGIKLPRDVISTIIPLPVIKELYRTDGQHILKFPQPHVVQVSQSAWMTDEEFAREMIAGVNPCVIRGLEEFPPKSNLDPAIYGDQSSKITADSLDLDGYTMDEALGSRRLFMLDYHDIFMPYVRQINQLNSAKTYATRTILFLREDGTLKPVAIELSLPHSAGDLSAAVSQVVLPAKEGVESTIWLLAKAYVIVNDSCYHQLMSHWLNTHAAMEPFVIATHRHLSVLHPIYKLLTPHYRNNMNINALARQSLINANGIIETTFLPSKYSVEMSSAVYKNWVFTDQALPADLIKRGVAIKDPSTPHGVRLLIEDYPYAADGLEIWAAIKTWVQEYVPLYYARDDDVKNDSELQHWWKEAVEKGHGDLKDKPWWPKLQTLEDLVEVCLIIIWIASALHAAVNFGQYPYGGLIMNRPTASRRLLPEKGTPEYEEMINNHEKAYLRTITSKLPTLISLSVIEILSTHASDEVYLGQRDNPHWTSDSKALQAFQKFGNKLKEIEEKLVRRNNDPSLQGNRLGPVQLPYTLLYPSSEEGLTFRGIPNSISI

{"columns": ["input_smiles", "quantity_unit", "IC50"],
 "data": [
  ["Cc1c2c(OCC(=O)N/N=C/c3ccccc3O)nn(C)c(=O)c2c(C)n1-c1ccccc1", "µM", 13.7],
  ["CCCCn1c(C)c2c(OCC(=O)N/N=C/c3ccccc3O)nn(C)c(=O)c2c1C", "µM", 13.6],
  ["CCCCn1c(C)c2c(OCC(=O)N/N=C/c3ccccc3)nn(C)c(=O)c2c1C", "µM", 12.9],
  ["Cc1ccc(/C=N/NC(=O)COc2nn(C)c(=O)c3c(C)n(-c4ccccc4)c(C)c23)cc1", "µM", 13.7]
]}

The measurements presented in this section are drawn from paper PMC10383271.
